# Target Of Assay: ENPP-1 ECD (Homo sapiens (Human), UniProt P22413)
# Sequence (P22413 98-925): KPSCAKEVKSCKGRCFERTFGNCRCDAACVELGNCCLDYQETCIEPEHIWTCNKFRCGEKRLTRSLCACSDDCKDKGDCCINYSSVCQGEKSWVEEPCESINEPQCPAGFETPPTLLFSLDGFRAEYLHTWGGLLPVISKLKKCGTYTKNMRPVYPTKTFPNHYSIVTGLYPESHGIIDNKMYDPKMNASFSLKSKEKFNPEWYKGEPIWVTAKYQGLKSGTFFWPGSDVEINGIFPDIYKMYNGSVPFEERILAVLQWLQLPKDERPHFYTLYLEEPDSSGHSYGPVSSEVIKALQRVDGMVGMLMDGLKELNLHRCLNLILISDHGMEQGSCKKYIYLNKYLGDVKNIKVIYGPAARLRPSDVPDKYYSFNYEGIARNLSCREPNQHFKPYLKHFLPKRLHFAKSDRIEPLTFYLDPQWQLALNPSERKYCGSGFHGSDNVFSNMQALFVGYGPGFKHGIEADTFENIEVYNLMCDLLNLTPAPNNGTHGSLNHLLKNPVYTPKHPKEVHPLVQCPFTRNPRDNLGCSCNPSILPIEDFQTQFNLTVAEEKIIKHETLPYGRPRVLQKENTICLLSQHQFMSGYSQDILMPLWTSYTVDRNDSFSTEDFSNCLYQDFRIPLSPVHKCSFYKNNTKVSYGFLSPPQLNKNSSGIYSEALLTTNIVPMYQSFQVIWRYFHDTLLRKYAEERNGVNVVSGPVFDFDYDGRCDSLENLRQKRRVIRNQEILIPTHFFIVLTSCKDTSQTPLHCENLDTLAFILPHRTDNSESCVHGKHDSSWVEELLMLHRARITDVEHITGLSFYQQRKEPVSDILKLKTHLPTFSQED
# Method Description: Assay 1: inhibition of ENPP1 hydrolysis of 2′,3′-cGAMP (AMP-Glo, […] enzyme)
# Test Context: read-out: Assay 1 (IC50); inhibition of ENPP1 hydrolysis of 2′,3′-cGAMP; no unit in Table 18 (Table 17 legend for this assay uses nM)
Endpoint: IC50 (nM)

Compound	IC50 [nM]
COc1cc2nccc(Oc3ccc([S@](C)(=N)=O)cc3)c2cc1F [Compound 114a]	0.94
COc1ccc2c(Oc3ccc([S@@](=N)(=O)C4CC4)cc3)ccnc2c1 [Compound 60a]	1.3
COc1cc2ncnc(N3CCC4(CC3)CCN([S@](C)(=N)=O)C4)c2cc1OC [Compound 54b]	7.6
COc1cc2nccc(Oc3ccc([S@@](C)(=N)=O)cc3)c2cc1F [Compound 114b]	77
COc1cc2ncc(C#N)c(Oc3ccc([S@](C)(=N)=O)cc3)c2cc1F [Compound 44b]	1900
COc1ccc2c(OCc3ccc([S@@](C)(=N)=O)cc3)ccnc2c1 [Compound 75a]	3
COc1ccc2c(N3CCC4(CC3)CCN([S@](C)(=N)=O)C4)ccnc2c1 [Compound 55a]	0.76

[a] COc1ccc2c(Oc3ccc([S@](C)(=N)=O)cc3)ccnc2c1 [Compound 80b]
[b] COc1cc2ncnc(N3CCC4(CC3)CCN([S@@](C)(=N)=O)C4)c2cc1OC [Compound 54a]
Enquiry: // select label with min value of measured IC50 from [ a , b ] # reply format: chosen label
Return: b
(b: 0.34 nM, a: 180 nM)
